Target: human GIP receptor (Homo sapiens, UniProt P48546)
Construct: expressed in transfected cells; host or cells: BHK cells (parent line BHKTS13), clone BHK CRE luc2P hGIPR clone #5
Sequence (P48546 22-466): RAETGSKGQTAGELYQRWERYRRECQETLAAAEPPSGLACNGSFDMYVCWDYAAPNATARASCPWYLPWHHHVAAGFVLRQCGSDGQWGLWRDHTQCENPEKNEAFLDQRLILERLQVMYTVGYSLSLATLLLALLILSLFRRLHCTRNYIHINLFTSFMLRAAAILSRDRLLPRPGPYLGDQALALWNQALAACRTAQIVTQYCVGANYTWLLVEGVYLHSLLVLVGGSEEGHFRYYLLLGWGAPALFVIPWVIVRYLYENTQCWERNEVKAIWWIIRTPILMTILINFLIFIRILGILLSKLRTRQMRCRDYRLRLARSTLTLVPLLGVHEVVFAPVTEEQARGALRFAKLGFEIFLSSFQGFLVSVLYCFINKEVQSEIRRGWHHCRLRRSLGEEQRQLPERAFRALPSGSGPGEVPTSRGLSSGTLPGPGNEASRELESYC
Assay: In vitro potency, CRE luciferase reporter gene assay, whole BHK cells expressing human GIP receptor
Format: cell-based
Conditions: 0.2% HSA
*1 amine or outer side, *2 acyl side, *3 side chain or, on linkers, in order; H or OH if unused. Where no end group is shown, it is not given here. Side-chain parts run from the residue outwards. [ ]: non-standard residue; d: D form. The star is where a group is joined. C18 diacid = O=C(O)CCCCCCCCCCCCCCCCC(=O)*; γGlu = O=C(O)[C@H](CCC(=O)[*:2])N[*:1]; Nle = CCCC[C@H](N)C(=O)O; AEEA = NCCOCCOCC(=O)O; Aib = CC(C)(N)C(=O)O
A collection of substances and their measured pEC50
Worth noting: pEC50 values are minus log10 of concentrations stated in mol/L.

Answered examples (2):
- H-Y[Aib]EGTFISDYSIA[Nle]DKIHQQDFVK([γGlu-γGlu-γGlu-C18 diacid])WLLAQKGKENDWKHNITQ [Compound 33]: 10.67
- H-Y[Aib]EGTFISDYSIA[Nle]DKIHQQDFVK([γGlu-γGlu-γGlu-C18 diacid])WLLAQKGKEEDWKHNITQ [Compound 38]: 11.05

Report pEC50 for H-Y[Aib]EGTFISDYSIA[Nle]DKIHQQDFVK([γGlu-γGlu-γGlu-C18 diacid])WLLAQKGKEDDWKHNITQ [Compound 39] please.
11.23

Now try H-Y[Aib]EGTFISDYSIALDKIHQQDFVK([AEEA-AEEA-γGlu-C18 diacid])WLLAQKGKKNDWKHNITQ [Compound 45] .
10.25

How about this substance: Y[Aib]EGTFISDYSIA[Nle]DKIHQQDFVK([AEEA-AEEA-γGlu-C18 diacid])WLLAQKGKEDDWKHNITQ [Compound 36]
11.22

----------
Target: human glucagon receptor (Homo sapiens, UniProt P47871)
Construct: expressed in transfected cells; host or cells: BHK cells (parent line BHKTS13), clone BHK CRE luc2P hGCGR clone #18
Sequence (P47871 26-477): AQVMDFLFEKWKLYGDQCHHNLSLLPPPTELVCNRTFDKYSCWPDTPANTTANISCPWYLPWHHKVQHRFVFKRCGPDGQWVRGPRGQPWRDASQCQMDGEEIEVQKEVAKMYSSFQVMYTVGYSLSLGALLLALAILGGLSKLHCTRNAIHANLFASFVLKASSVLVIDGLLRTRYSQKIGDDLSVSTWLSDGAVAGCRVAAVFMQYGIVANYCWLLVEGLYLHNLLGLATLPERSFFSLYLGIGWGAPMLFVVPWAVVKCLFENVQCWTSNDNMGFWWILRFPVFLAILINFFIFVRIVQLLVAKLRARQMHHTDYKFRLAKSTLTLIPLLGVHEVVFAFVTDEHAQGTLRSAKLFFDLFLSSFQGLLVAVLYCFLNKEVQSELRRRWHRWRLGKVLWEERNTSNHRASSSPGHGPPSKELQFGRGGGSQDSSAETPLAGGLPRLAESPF
Assay: In vitro potency, CRE luciferase reporter gene assay, whole BHK cells expressing human glucagon receptor
Type: cell-based
Conditions: 0.2% HSA
*1 amine or outer side, *2 acyl side, *3 side chain or, on linkers, in order; H or OH if unused. Where no end group is shown, it is not given here. Side-chain parts run from the residue outwards. [ ]: non-standard residue; d: D form. The star is where a group is joined. C18 diacid = O=C(O)CCCCCCCCCCCCCCCCC(=O)*; γGlu = O=C(O)[C@H](CCC(=O)[*:2])N[*:1]; Nle = CCCC[C@H](N)C(=O)O; AEEA = NCCOCCOCC(=O)O; Aib = CC(C)(N)C(=O)O
Entries and their EC50

In the examples that follow, each entry is paired with its recorded EC50.
• H-Y[Aib]EGTFISDYSIA[Nle]DKIHQQDFVK([γGlu-γGlu-γGlu-C18 diacid])WLLAQKGKEEDWKHNITQ [Compound 38] = > 100 nM
• Y[Aib]EGTFISDYSIA[Nle]DKIHQQDFVK([AEEA-AEEA-γGlu-C18 diacid])WLLAQKGKEDDWKHNITQ [Compound 36] = > 100 nM

// EC50 lookup, key: H-Y[Aib]EGTFISDYSIA[Nle]DKIHQQDFVK([γGlu-γGlu-γGlu-C18 diacid])WLLAQKGKEDDWKHNITQ [Compound 39]
> 100 nM

----------
Target: human GLP-1 receptor (Homo sapiens, UniProt P43220)
Construct: expressed in transfected cells; host or cells: BHK cells (parent line BHKTS13), clone BHK CRE luc2P hGLP-1R clone #6
Sequence (P43220 24-463): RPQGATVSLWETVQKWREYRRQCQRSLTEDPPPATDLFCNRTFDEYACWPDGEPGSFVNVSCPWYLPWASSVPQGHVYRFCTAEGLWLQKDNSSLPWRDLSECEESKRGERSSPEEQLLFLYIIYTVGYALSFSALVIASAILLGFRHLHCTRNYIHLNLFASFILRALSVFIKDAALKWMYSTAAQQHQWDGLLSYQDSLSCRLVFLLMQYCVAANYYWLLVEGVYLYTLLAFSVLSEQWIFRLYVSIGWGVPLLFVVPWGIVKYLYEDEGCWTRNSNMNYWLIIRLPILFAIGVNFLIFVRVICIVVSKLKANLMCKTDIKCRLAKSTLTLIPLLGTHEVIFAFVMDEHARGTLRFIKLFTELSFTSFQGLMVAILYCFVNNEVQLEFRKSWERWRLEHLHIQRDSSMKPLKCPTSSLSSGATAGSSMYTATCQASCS
Assay: In vitro potency, CRE luciferase reporter gene assay, whole BHK cells expressing human GLP-1 receptor
Format: cell-based
Conditions: 0.2% HSA
*1 amine or outer side, *2 acyl side, *3 side chain or, on linkers, in order; H or OH if unused. Where no end group is shown, it is not given here. Side-chain parts run from the residue outwards. [ ]: non-standard residue; d: D form. The star is where a group is joined. C18 diacid = O=C(O)CCCCCCCCCCCCCCCCC(=O)*; γGlu = O=C(O)[C@H](CCC(=O)[*:2])N[*:1]; Nle = CCCC[C@H](N)C(=O)O; AEEA = NCCOCCOCC(=O)O; Aib = CC(C)(N)C(=O)O
measured.metric: EC50

- H-Y[Aib]EGTFISDYSIA[Nle]DKIHQQDFVK([γGlu-γGlu-γGlu-C18 diacid])WLLAQKGKEDDWKHNITQ [Compound 39]: > 100 nM

Look at this substance and give its reported EC50. Y[Aib]EGTFISDYSIA[Nle]DKIHQQDFVK([AEEA-AEEA-γGlu-C18 diacid])WLLAQKGKEDDWKHNITQ [Compound 36]
> 100 nM

Also, H-Y[Aib]EGTFISDYSIA[Nle]DKIHQQDFVK([γGlu-γGlu-γGlu-C18 diacid])WLLAQKGKEEDWKHNITQ [Compound 38] please.
> 100 nM
